All figures here come from ChEMBL document CHEMBL4831517.

Collected pIC50 values appear next to each entry.
target: E3 ubiquitin-protein ligase XIAP/Receptor-interacting serine/threonine-protein kinase 2 (Homo sapiens, UniProt O43353+P98170); assay: Protac activity at IAP/RIPK2 in human whole blood assessed as inhibition of MDP-induced TNFalpha production by ELISA
Sequence (P98170 whole entry): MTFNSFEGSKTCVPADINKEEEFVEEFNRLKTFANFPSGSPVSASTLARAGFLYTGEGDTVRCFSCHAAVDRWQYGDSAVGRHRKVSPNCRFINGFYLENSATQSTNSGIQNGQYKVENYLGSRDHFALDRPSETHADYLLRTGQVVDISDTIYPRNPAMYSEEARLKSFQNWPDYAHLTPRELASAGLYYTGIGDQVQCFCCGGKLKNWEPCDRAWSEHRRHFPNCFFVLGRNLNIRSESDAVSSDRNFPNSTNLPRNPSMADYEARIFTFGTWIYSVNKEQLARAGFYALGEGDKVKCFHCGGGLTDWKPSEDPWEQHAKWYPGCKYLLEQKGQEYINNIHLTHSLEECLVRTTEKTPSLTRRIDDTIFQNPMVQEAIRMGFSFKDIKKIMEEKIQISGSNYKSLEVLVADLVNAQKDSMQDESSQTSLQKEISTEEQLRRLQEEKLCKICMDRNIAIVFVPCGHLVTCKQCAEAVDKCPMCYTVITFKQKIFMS
Sequence (O43353 whole entry): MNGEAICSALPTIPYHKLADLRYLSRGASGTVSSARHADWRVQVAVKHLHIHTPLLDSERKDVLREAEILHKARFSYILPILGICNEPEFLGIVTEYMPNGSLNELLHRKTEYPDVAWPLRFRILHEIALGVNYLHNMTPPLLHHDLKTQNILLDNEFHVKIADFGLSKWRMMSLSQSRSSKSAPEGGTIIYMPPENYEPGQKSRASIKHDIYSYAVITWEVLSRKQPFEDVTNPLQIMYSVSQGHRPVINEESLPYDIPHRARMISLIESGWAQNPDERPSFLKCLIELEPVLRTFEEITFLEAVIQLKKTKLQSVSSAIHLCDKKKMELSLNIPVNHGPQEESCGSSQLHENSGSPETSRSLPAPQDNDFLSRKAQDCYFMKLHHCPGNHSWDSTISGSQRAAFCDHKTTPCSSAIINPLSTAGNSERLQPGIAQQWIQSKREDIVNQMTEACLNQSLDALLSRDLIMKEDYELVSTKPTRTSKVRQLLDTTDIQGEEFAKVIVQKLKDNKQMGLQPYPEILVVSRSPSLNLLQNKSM
Scale for pIC50: -log10 of concentration given in mol/L; no unit attached.

Worked examples follow.
CN[C@@H](C)C(=O)N[C@H](C(=O)N1CCC[C@H]1c1nc(C(=O)c2ccc(F)cc2)cs1)C1CCN(C(=O)c2cnc(N3CCN(CCOc4cc5ncnc(Nc6n[nH]c(C)c6C)c5cc4S(=O)(=O)C(C)(C)C)CC3)cn2)CC1	7.80
CN[C@H](C)C(=O)N[C@@H](C(=O)N1C[C@@H](NC(=O)c2cnc(N3CCN(CCCOc4cc5ncnc(Nc6n[nH]c(C)c6C)c5cc4S(=O)(=O)C(C)(C)C)CC3)cn2)C[C@H]1c1nc(C(=O)c2ccc(F)cc2)cs1)C(C)(C)C	8.60

Okay, now this molecule:
Measured pIC50 of `CN[C@@H](C)C(=O)N[C@H](C(=O)N1CCC[C@H]1c1nc(C(=O)c2ccc(F)cc2)cs1)C1CCN(C(=O)c2cnc(N3CCN(CCCOc4cc5ncnc(Nc6n[nH]c(C)c6C)c5cc4S(=O)(=O)C(C)(C)C)CC3)cn2)CC1` : 8.80

====

target: E3 ubiquitin-protein ligase XIAP/Receptor-interacting serine/threonine-protein kinase 2 (Homo sapiens, UniProt O43353+P98170); experiment: Protac activity at IAP/RIPK2 in human whole blood assessed as inhibition of MDP-induced TNFalpha production by ELISA
Overview of recorded IC50 for various molecules

`CN[C@@H](C)C(=O)N[C@H](C(=O)N1CCC[C@H]1c1nc(C(=O)c2ccc(F)cc2)cs1)C1CCN(C(=O)COCCOCCOCCOCCOc2cc3ncnc(Nc4n[nH]c(C)c4C)c3cc2S(=O)(=O)C(C)(C)C)CC1` has a reported IC50 of 63.1 nM

GET /value?item= `CN[C@@H](C)C(=O)N[C@H]1CN(C(=O)c2cnc(N3CCN(CCCOc4cc5ncnc(Nc6n[nH]c(C)c6C)c5cc4S(=O)(=O)C(C)(C)C)CC3)cn2)CC[C@H]2CC[C@@H](C(=O)N[C@@H]3CCCc4ccccc43)N2C1=O` &field=IC50 returns 3.16 nM

IC50 measured on `Cc1[nH]nc(Nc2ncnc3cc(OCCCN4CCN(C(=O)c5cnc(N6CCN(C[C@H]7CN[C@H](C)CN7CC(=O)N7CC(C)(C)c8c7cc(Cc7ccc(F)cc7)c(=O)n8C)[C@H](C)C6)nc5)CC4)c(S(=O)(=O)C(C)(C)C)cc23)c1C` = 6.31 nM

Lab note: `CN[C@@H](C)C(=O)N[C@H](C(=O)N1CCC[C@H]1c1nc(C(=O)c2ccc(F)cc2)cs1)C1CCN(C(=O)c2cnc(N3CCC(CCCOc4cc5ncnc(Nc6n[nH]c(C)c6C)c5cc4S(=O)(=O)C(C)(C)C)CC3)nc2)CC1` gave IC50 of 3.16 nM

====

Catalogue of solubility kinetic values
test: Solubility of the compound by chemiluminescent nitrogen detection (CLND) method; format: physicochemical
Give the number; µM is assumed, so skip it.

In the examples that follow, each entry is paired with its recorded solubility kinetic.
CN[C@@H](C)C(=O)N[C@H](C(=O)N1CCC[C@H]1c1nc(C(=O)c2ccc(F)cc2)cs1)C1CCN(C(=O)c2cnc(N3CCN(CCOc4cc5ncnc(Nc6n[nH]c(C)c6C)c5cc4S(=O)(=O)C(C)(C)C)CC3)cn2)CC1	271
CN[C@@H](C)C(=O)N[C@H](C(=O)N1Cc2cc(OCCOCCOCCOCCOc3cc4nccc(Nc5ccc6scnc6c5)c4cc3S(=O)(=O)C(C)(C)C)ccc2C[C@@H]1C(=O)N[C@@H]1CCCc2ccccc21)C(C)(C)C	21

Moving on to another compound below.
Looking up `CN[C@@H](C)C(=O)N[C@H](C(=O)N1CCC[C@H]1c1nc(C(=O)c2ccc(F)cc2)cs1)C1CCN(C(=O)COCCOCCOCCOCCOc2cc3nccc(Nc4ccc5scnc5c4)c3cc2S(=O)(=O)C(C)(C)C)CC1` , I see its solubility kinetic listed as 308
